Reference for the values: patent US20260109721A1

Tested on: HeLa cells
Experiment: Transfection efficiency with Luciferase (SecNLuc) mRNA, Nano-Glo assay (Method A)
Assay type: cell-based
Settings: Luc mRNA, 10 ng mRNA/well, 24 h, luminescence
Use Y when the recorded Transfection 10 ng mRNA is no lower than 30000; use N when it is lower.

compound	class
CCCCC/C=C\C/C=C\CCCCCCCCOC(CCCCCCCCCCCCCCC)O[Si](C)(C)OCCCCCCN(CCO)CCO (stereo not shown) [Example 43]	Y
CCCCCCCC/C=C\CCCCCCCC(OCCCCCCCCCCCCCCCC)O[Si](C)(C)OCCCCCCN(CCO)CCO (stereo not shown) [Example 42]	Y
CCCCCCCC/C=C\CCCCCCCC(OCCC(C)CCCC(C)CCCC(C)CCCC(C)C)O[Si](C)(C)OCCCCCCN(CCO)CCO (stereo not shown) [Example 75]	N
CCCCCCCC/C=C\CCCCCCCCOC(=O)C(C)(C)CC(OCCCCCCCC/C=C\CCCCCCCC)O[Si](C)(C)OCCCCCCN1CCCCC1 (stereo not shown) [Example 87]	N
CCCCC/C=C\C/C=C\CCCCCCCCOC(CCCCCCC/C=C\C/C=C\CCCCC)O[Si](C)(C)OCCCCCCN(C)[C@H](CO)Cc1ccccc1 (stereo partly shown) [Example 77]	N
CCCCCCCC/C=C\CCCCCCCC(OCCCCCCCCCCCC1CCCCC1)O[Si](C)(C)OCCCCCCN(CCO)CCO (stereo not shown) [Example 74]	N
CCCCCCCC/C=C\CCCCCCCCOC(CCCCCCC/C=C\CCCCCCCC)O[Si](C)(C)OCCCCCCN(C)[C@H](CO)Cc1ccccc1 (stereo partly shown) [Example 78]	N
CCCCCCCC/C=C\CCCCCCCCOC(=O)C(C)(C)CC(OCCCCCCCC/C=C\CCCCCCCC)O[Si](C)(C)OCCCCCCN(CCO)CCO (stereo not shown) [Example 84]	N
CCCCCCCCCCCCCCCCOC(CCCCCCCCCCCCCCC)O[Si](C)(C)OCCCCCCN(CCO)CCO (stereo not shown) [Example 49]	Y
CCCCC/C=C\C/C=C\CCCCCCCC(OCCCCCCCCCCCCCCCC)O[Si](C)(C)OCCCCCCN(CCO)CCO (stereo not shown) [Example 44]	Y
CCCCCCCC/C=C\CCCCCCCCOC(=O)C(C)(C)CC(OCCCCCCCC/C=C\CCCCCCCC)O[Si](C)(C)OCCCCCCN(CCCCO)CCCCO (stereo not shown) [Example 86]	Y
CCCCCCCC/C=C\CCCCCCCCOC(=O)C(C)(C)CCC(OCCCCCCCC/C=C\CCCCCCCC)O[Si](C)(C)OCCCCCCN(CCO)CCO (stereo not shown) [Example 94]	N
CCCCCCCC/C=C\CCCCCCCCOC(=O)C(C)(C)CC(OCCCCCCCC/C=C\CCCCCCCC)O[Si](C)(C)OCCCCCCN1CCCCC1CO (stereo not shown) [Example 89]	Y
CCCCCCCC/C=C\CCCCCCCC(OCC(CCCCCC)CCCCCCCC)O[Si](C)(C)OCCCCCCN(CCO)CCO (stereo not shown) [Example 50]	Y
CCCCC/C=C\C/C=C\CCCCCCCCOC(CCCCCCC/C=C\C/C=C\CCCCC)O[Si](C)(C)OCCCCCCN(CCO)CCN(CCO)CCCCCCO[Si](C)(C)OC(CCCCCCC/C=C\C/C=C\CCCCC)OCCCCCCCC/C=C\C/C=C\CCCCC (stereo not shown) [Example 71]	Y
CCCCC/C=C\C/C=C\CCCCCCCCOC(CCCCCCC/C=C\C/C=C\CCCCC)O[Si](C)(C)OCCCCCCN(C)Cc1cn(C2[C@H](O)O[C@H](CO)[C@@H](O)[C@@H]2O)nn1 (stereo partly shown) [Example 68]	N
CCCCCCCC/C=C\CCCCCCCCOC(=O)C(C)(C)CC(OCCCCCCCC/C=C\CCCCCCCC)O[Si](C)(C)OCCCCCCN1CCCC1CO (stereo not shown) [Example 90]	N
CCCCC/C=C\C/C=C\CCCCCCCCOC(CCCCCCC/C=C\C/C=C\CCCCC)O[Si](C)(C)OCCCCCCN(CCCCO)CCCCO (stereo not shown) [Example 62]	Y
CCCCCCCCCCCOC(=O)CCCCCN(CCO)CCCCCCCC(=O)OC(CCCCCCCC)CCCCCCCC [SM-102, reference compound]	Y
CCCCCCCC/C=C\CCCCCCCCOC(=O)C(C)(C)CC(OCCCCCCCC/C=C\CCCCCCCC)O[Si](C)(C)OCCCCCCN1CCOCC1 (stereo not shown) [Example 85]	N
CCCCCCCC/C=C\CCCCCCCCOC(=O)C(C)(C)CC(OCCCCCCCC/C=C\CCCCCCCC)O[Si](C)(C)OCCCCCCN(C)CCO (stereo not shown) [Example 93]	N
CCCCCCCC/C=C\CCCCCCCC(OCCCCCCCCCCCCCCC(C)C)O[Si](C)(C)OCCCCCCN(CCO)CCO (stereo not shown) [Example 76]	N
CCCCCCCC/C=C\CCCCCCCCOC(=O)C(C)(C)CC(OCCCCCCCC/C=C\CCCCCCCC)O[Si](C)(C)OCCCCCCN(C)CCCCO (stereo not shown) [Example 91]	N
CCCCC/C=C\C/C=C\CCCCCCCCOC(CC[C@@H](C)C1CCC2C3CCC4C[C@H](OC)CC[C@]4(C)C3CC[C@@]21C)O[Si](C)(C)OCCCCCCN(CCO)CCO (stereo partly shown) [Example 52]	Y
CCCCC/C=C\C/C=C\CCCCCCCCO[Si](C)(C)OC(CCCCCCC/C=C\C/C=C\CCCCC)OCCCN(C)C (stereo not shown) [Example 80]	N
